# subject.of.test: T1, orthogonal hCD122 receptor (hoRb), hCD122 with H133D and Y134F (human, UniProt P14784 27-550)
# T1 sequence: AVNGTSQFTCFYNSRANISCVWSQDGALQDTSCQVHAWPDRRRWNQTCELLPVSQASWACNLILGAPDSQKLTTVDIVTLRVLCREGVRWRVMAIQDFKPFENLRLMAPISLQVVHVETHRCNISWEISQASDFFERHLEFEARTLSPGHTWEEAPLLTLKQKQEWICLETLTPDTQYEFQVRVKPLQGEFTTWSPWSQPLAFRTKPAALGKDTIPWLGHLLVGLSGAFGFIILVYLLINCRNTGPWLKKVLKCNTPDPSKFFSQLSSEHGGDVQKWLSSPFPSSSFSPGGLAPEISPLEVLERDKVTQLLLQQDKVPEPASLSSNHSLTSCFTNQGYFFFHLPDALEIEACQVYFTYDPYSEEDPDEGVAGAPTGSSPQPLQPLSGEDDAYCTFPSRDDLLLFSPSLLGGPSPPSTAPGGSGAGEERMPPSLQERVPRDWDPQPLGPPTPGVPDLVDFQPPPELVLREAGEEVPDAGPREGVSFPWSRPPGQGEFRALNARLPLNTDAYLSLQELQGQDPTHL
# procedure.text: cell-based or functional assay
observation.type: NKL Ortho Proliferation Signal 1:50

The cases that follow already have their NKL Ortho Proliferation Signal 1:50 on record.
Inquiry: Endpoint output: NKL Ortho Proliferation Signal 1:50 of SQVLKL (ligand) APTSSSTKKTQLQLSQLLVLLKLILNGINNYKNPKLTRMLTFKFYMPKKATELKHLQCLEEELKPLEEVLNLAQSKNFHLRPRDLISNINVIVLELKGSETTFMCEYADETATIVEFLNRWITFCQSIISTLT . Value?
Reply text: 32700

Inquiry: Endpoint output: NKL Ortho Proliferation Signal 1:50 of L14M, SQVLKA (ligand) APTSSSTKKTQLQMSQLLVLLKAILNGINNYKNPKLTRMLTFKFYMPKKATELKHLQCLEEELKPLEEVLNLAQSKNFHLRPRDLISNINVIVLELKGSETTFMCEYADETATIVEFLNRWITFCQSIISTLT . Value?
Reply text: 26700

(1) SQVLKS (ligand) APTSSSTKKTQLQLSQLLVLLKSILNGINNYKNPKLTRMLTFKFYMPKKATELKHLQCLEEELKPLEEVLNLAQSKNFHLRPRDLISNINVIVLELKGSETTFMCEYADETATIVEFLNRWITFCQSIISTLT
(2) Q126C, SQVLKA (ligand) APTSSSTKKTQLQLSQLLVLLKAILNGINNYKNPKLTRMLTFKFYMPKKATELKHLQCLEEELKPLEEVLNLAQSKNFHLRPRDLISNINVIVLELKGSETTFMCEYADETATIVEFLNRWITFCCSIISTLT
Inquiry: Just tell me: smaller NKL Ortho Proliferation Signal 1:50 value, 1 or 2 ? Answer by stating the label of the chosen item.
Reply text: 2
